Test: CellTiter-Glo cell viability assay (cytotoxicity), MOLT4
Type: cell-based
Condition Context: human; MOLT4, 72 h treatment; read-out: In vitro cytotoxicity EC50 ± SD MOLT4
Would you kindly list EC50 at 72 h for each of these molecules?

I am curious: what EC50 at 72 h value has been reported for COC1=CC(c2ccc[nH]2)=N[C@@]12O[C@H](C)C[C@H]1CCCCCCCc3[nH]c(cc3C(C)(C)c3cc4[nH]c3CCCCCCC[C@@H]3C[C@@H](C)O[C@@]5(N=C(c6ccc[nH]6)C=C5OC)[C@@H]43)[C@@H]12 [compound 4, gem-dimethyl-bridged premarineosin A] ?
2260 nM

Also COC1=CC(c2ccc[nH]2)=N[C@@]12O[C@H](C)C[C@H]1CCCCCCCc3[nH]c(cc3Cc3cc4[nH]c3CCCCCCC[C@@H]3C[C@@H](C)O[C@@]5(N=C(c6ccc[nH]6)C=C5OC)[C@@H]43)[C@@H]12 [compound 5, Methylene-bridged premarineosin A] , if possible.
1160 nM

###

System: Plasmodium falciparum Dd2 (chloroquine-resistant)
Test: In vitro antimalarial growth inhibition assay (SYBR green), Dd2
Format: cell-based
Condition Context: Plasmodium falciparum, DD2, 48 h, read-out: In vitro activity EC50 ± SD P. falciparum Dd2
Would you kindly list pEC50 for each of these molecules?
The value called pEC50 is obtained by taking minus log10 of the concentration in mol/L.

I am curious: what pEC50 value has been reported for COC1=CC(c2ccc[nH]2)=N[C@@]12O[C@H](C)C[C@H]1CCCCCCCc3[nH]c(cc3C(C)(C)c3cc4[nH]c3CCCCCCC[C@@H]3C[C@@H](C)O[C@@]5(N=C(c6ccc[nH]6)C=C5OC)[C@@H]43)[C@@H]12 [compound 4, gem-dimethyl-bridged premarineosin A] ?
5.91

Also COC1=CC(c2ccc(Br)[nH]2)=N[C@@]12O[C@H](C)C[C@H]1CCCCCCCc3ccc([nH]3)[C@@H]12 [compound 11, 1-bromo premarineosin A] , if possible.
6.59

Also COC1=CC(c2ccc[nH]2)=N[C@@]12O[C@H](C)C[C@H]1CCCCCCCc3[nH]c(cc3Br)[C@@H]12 [compound 12, 12-bromo premarineosin A] , if possible.
7.66

Also CCN(CC)CCCC(C)Nc1ccnc2cc(Cl)ccc12 (stereo not shown) [Chloroquine, reference compound] , if possible.
6.42

###

Test: CellTiter-Glo cell viability assay (cytotoxicity), HEK293
Assay type: cell-based
Condition Context: human; HEK293, 72 h treatment; read-out: In vitro cytotoxicity EC50 ± SD HEK293
hey, just use T if measured EC50 at 72 h is less than 8 µM, otherwise F

Please check: EC50 at 72 h for COC1=CC(c2ccc[nH]2)=N[C@@]12O[C@H](C)C[C@H]1CCCCCCCc3[nH]c(cc3Br)[C@@H]12 [compound 12, 12-bromo premarineosin A] , strictly under 8 µM or not?
T

Also COC1=CC(c2ccc[nH]2)=N[C@@]12O[C@H](C)C[C@H]1CCCCCCCc3[nH]c(cc3CO)[C@@H]12 [compound 10, 12-hydroxymethyl-premarineosin A] , if possible.
F

Also COC1=CC(c2ccc[nH]2)=N[C@@]12O[C@H](C)C[C@H]1CCCCCCCc3[nH]c(cc3C(C)(C)c3cc4[nH]c3CCCCCCC[C@@H]3C[C@@H](C)O[C@@]5(N=C(c6ccc[nH]6)C=C5OC)[C@@H]43)[C@@H]12 [compound 4, gem-dimethyl-bridged premarineosin A] , if possible.
F

Also COC1=CC(c2ccc[nH]2)=N[C@@]12O[C@H](C)C[C@H]1CCCCCCCc3ccc([nH]3)[C@@H]12 [compound 3, (−)-premarineosin A] , if possible.
T

Also COC1=CC(c2ccc(Br)[nH]2)=N[C@@]12O[C@H](C)C[C@H]1CCCCCCCc3ccc([nH]3)[C@@H]12 [compound 11, 1-bromo premarineosin A] , if possible.
F

Also COC1=CC(c2ccc[nH]2)=N[C@@]12O[C@H](C)C[C@H]1CCCCCCCc3[nH]c(cc3Cc3cc4[nH]c3CCCCCCC[C@@H]3C[C@@H](C)O[C@@]5(N=C(c6ccc[nH]6)C=C5OC)[C@@H]43)[C@@H]12 [compound 5, Methylene-bridged premarineosin A] , if possible.
F
